system: MDA-N; experiment: NCI tumour cell line growth inhibition, 48 h
Active and inactive are the calls of the source. Rule as the data show it: active = GI50 up to about 1.1 µM and inactive = higher.
Outcomes you can answer with include only these: active, inactive

Ask: I'd appreciate the recorded outcome for O=C(Oc1ccc(C(c2c(O)c3ccccc3oc2=O)c2c(O)c3ccccc3oc2=O)cc1)c1ccc(C(=O)c2ccccc2)cc1 from this test.
Reply: inactive

Ask: Hey, what did the test say about CCCCCCCCC/C=C1\CC(CO)(COC(=O)c2ccccc2)OC1=O (stereo not given) ?
Reply: inactive

Ask: Answer briefly: the call reported for CC(C(=O)O)c1ccc(-c2ccccc2)c(F)c1 (stereo not given) in this assay.
Reply: inactive

Ask: Recorded test call requested for N/C(=N/O)c1cn(C2OC(CO)C(O)C2O)c2ncnc(NO)c12 (stereo not given)
Reply: active

Ask: How was CC(C)=CCc1cc2c(cc1O)OC[C@H]1c3cc4c(cc3O[C@@H]21)OCO4 classified in this test?
Reply: inactive

Ask: So what was the verdict on CC(C)Oc1c(O)c2c3c(oc(=O)n3C=CC2c2ccccc2F)c1OC(C)C (stereo not given) in this test?
Reply: inactive

Ask: Please let me know the test result on file for CC(C)C1OC2(C)OC(=N)C1(C#N)C(C#N)(C#N)C2C (stereo not given) .
Reply: inactive

The measured values listed here are drawn from ChEMBL document CHEMBL1201862.
